Origin of measurements: the kinase profiling compilation of Christmann-Franck et al. (2016)

target-of-assay: MKNK2 (human) (UniProt Q9HBH9)
Sequence (Q9HBH9 whole entry, looked up): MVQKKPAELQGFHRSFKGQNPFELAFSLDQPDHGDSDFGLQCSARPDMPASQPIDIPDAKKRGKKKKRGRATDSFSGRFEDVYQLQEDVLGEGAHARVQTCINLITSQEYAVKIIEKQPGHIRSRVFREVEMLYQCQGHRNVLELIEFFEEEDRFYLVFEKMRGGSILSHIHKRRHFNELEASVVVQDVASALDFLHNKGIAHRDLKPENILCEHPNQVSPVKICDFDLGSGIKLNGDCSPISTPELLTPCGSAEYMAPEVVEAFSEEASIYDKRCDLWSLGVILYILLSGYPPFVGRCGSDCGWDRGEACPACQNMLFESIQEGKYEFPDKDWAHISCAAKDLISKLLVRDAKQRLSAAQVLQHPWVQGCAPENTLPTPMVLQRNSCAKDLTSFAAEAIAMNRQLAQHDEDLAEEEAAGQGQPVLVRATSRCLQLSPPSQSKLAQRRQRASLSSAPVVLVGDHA
test-details: radiometric filter-binding kinase assay
experimental-setup: compound 1.0 µM
molecules and their reported residual activity
State the result as a value with its unit after it.

Note down residual activity recorded for N#Cc1c(C2CCNCC2)cc(-c2c(O)cccc2OCC2CC2)nc1N
113%

Note down residual activity recorded for COc1cc(C(=O)N2CCOCC2)c(F)cc1Nc1ncc(C(F)(F)F)c(NC2CC2)n1
58%

Note down residual activity recorded for NC(=O)c1ccc(-c2ccc(Oc3cncc4sc(-c5nn[nH]n5)cc34)cc2)cc1
94%

Note down residual activity recorded for O=C(O)c1ccc(-c2c[nH]c3ncc(-c4ccccc4)cc23)cc1C1CCCC1
14%

Note down residual activity recorded for CCCC(CCC)C(=O)O
90%

Continuing:
Note down residual activity recorded for COc1cc(O)c2c(c1)/C=C/C[C@H](O)[C@H](O)C(=O)/C=C\C[C@H](C)OC2=O
26%

Note down residual activity recorded for Cn1c(=O)c2c(ncn2C)n(C)c1=O
91%

Note down residual activity recorded for NC(=O)c1cc(-c2ccnc(NC3CCCCC3)c2)nc(N2CCNCC2)c1
31%

Note down residual activity recorded for FC(F)(F)c1ccc(-c2ccc(Oc3cncc4sc(-c5nn[nH]n5)cc34)cc2)cc1
105%

Note down residual activity recorded for O=C(O)c1cc(N=Nc2ccc(S(=O)(=O)Nc3ccccn3)cc2)ccc1O
76%

Note down residual activity recorded for Cc1cc(SCc2sc(-c3ccc(C(F)(F)F)cc3)nc2C)ccc1OCC(=O)O
99%

Note down residual activity recorded for COc1cc2ncn(-c3cc(OCc4ccccc4S(C)(=O)=O)c(C#N)s3)c2cc1OC
47%

Note down residual activity recorded for Cc1nc(-c2ccc(OCC(C)C)c(C#N)c2)sc1C(=O)O
105%

Note down residual activity recorded for O=C1NC(=S)N[C@@H]1Cc1c[nH]c2ccccc12
92%

Note down residual activity recorded for O=C(NCCCNc1nc(Nc2cccc(CN3CCOCC3)c2)ncc1C1CC1)C1CCC1
50%

Note down residual activity recorded for NC1(c2ccc(-c3nc4ccn5c(=O)[nH]nc5c4cc3-c3ccccc3)cc2)CCC1
100%

Note down residual activity recorded for CCn1c(-c2nonc2N)nc2cncc(CNC3CCNCC3)c21
116%

Note down residual activity recorded for c1ccc2c(-c3cnn4cc(-c5ccc(N6CCNCC6)cc5)cnc34)ccnc2c1
60%

Note down residual activity recorded for O=C1Nc2nc(-c3c(O)cccc3OCC3CC3)cc(C3CCCNC3)c2CO1 (stereo unspecified)
98%

Note down residual activity recorded for COc1cc(O)c2c(c1)[C@H]1OC1C[C@H](O)[C@H](O)C(=O)/C=C\C[C@H](C)OC2=O (stereo partly specified)
44%

Note down residual activity recorded for Oc1ccc(/C=C/c2cc(O)cc(O)c2)cc1
74%

* * *

target-of-assay: MAPK15 (human)
test-details: radiometric filter-binding kinase assay
experimental-setup: compound 10.0 µM
property-label: residual activity (%)
Numeric answer only, unit % assumed.

Note down residual activity recorded for Cc1ccc2c(c1)C(=O)[C@@]1(O)CCN(c3ccccc3)C1=N2
89

Note down residual activity recorded for CCCCCc1ccc(/C=C/[C@H](O)[C@@H](CO)NC)cc1
77

Note down residual activity recorded for C=CC(=O)N1CCC[C@@H](n2nc(-c3ccc(Oc4ccccc4)cc3)c3c(N)ncnc32)C1
74

Note down residual activity recorded for O=C1NC(=S)N[C@@H]1Cc1c[nH]c2ccccc12
94

Note down residual activity recorded for Nc1cccc2c1CN(C1CCC(=O)NC1=O)C2=O (configuration not stated)
98

Note down residual activity recorded for NC(=O)c1c(NC(=O)C2CC2)sc2c1CCCC2
67

Note down residual activity recorded for CCOC(=O)c1ccc(N2NC(=O)/C(=C/c3ccc([N+](=O)[O-])o3)C2=O)cc1
86

Note down residual activity recorded for Cc1ccc(Sc2cnc(Nc3cccc(Br)n3)s2)cc1C(=O)N1CCN(C(=O)CN)CC1
1

Note down residual activity recorded for O=S(=O)(c1ccc(F)c2nonc12)N1CCN(c2ncc(C(F)(F)F)cc2Cl)CC1
79

Note down residual activity recorded for COc1ccc2c(c1)c1c3c(c4c5ccccc5n(C)c4c1n2CC(O)CN(C)C)C(=O)NC3=O (configuration not stated)
54

Note down residual activity recorded for O=C(O)c1cc(N=Nc2ccc(S(=O)(=O)Nc3ccccn3)cc2)ccc1O
109

Note down residual activity recorded for NC(=O)c1cc2c(-c3cccc(-c4ccccc4)c3)cnc(N)c2s1
23

Note down residual activity recorded for Oc1ccc2ccccc2c1SSc1c(O)ccc2ccccc12
49

Note down residual activity recorded for O=C1Nc2nc(-c3c(O)cccc3OCC3CC3)cc(C3CCCNC3)c2CO1 (configuration not stated)
10
